# measurement.target: T1, PSMA Fab (006 PSMA Fab) (biotinylated (site not given))
# T1 construct: also called Anti-PSMA Fab; anti-PSMA Fab
# assay.details: clonal phage ELISA; biotinylated PSMA Fab on neutravidin plate, wells pre-incubated with PSMA antigen as competitor; anti-M13 HRP detection;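 also: crude clonal phage supernatants added to antigen-treated wells without a wash, incubated briefly, then bound phage read out via horse radish–conjugated anti-M13 antibody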
Where no end group is shown, it is not given here.
reported.metric: Phage binding ELISA signal, Anti-PSMA Fab with PSMA antigen

Examples with answers:
>>> result("DLKWCIPSWMCTST (cysteine pairing not given here; also: displayed on phage pIII, linker not given here, Clonal phage of the Peptide-180 library, tested as crude phage supernatant; not shown: pIII filament protein of the bacteriophage) [Phage-2642]")
0.0977
>>> result("AEKLCIPDWMCDVY (cysteine pairing not given here; also: displayed on phage pIII, linker not given here, Clonal phage of the Peptide-180 library, tested as crude phage supernatant; not shown: pIII filament protein of the bacteriophage) [Phage-2641]")
0.0771
>>> result("DDRWCIPTWMCFLD (cysteine pairing not given here; also: displayed on phage pIII, linker not given here, Clonal phage of the Peptide-180 library, tested as crude phage supernatant; not shown: pIII filament protein of the bacteriophage) [Phage-2636]")
0.0733

Here is another binder to look at.
## Input Given QPKWCTPDWMCTGI (cysteine pairing not given here; also: displayed on phage as pIII fusion, fusion junction and sequence not given here, Clonal phage of the Peptide-180 library, tested as crude phage supernatant; not shown: pIII filament protein of the bacteriophage) [Phage-2646] , state its recorded Phage binding ELISA signal, Anti-PSMA Fab with PSMA antigen.
## Output 0.105
